Values from patent US20240400708A1

Target: feline FcRn complex (FcRn-α subunit and β-microglobulin), biotin labeled (feline)
Test: SPR, pH 7.4
Parameter measured: pKd
In textbook form, pKd equals minus log to base ten of the concentration in mol/L.

Request: # return recorded pKd for input feline IgG1a H436Y (antibody, part only; not given: Variable domains, not shown: another chain or arm of the molecule) constant: ASTTAPSVFPLAPSCGTTSGATVALACLVLGYFPEPVTVSWNSGALTSGVHTFPAVLQASGLYSLSSMVTVPSSRWLSDTFTCNVAHPPSNTKVDKTVRKTDHPPGPKPCDCPKCPPPEMLGGPSIFIFPPKPKDTLSISRTPEVTCLVVDLGPDDSDVQITWFVDNTQVYTAKTSPREEQFNSTYRVVSVLPILHQDWLKGKEFKCKVNSKSLPSPIERTISKAKGQPHEPQVYVLPPAQEELSRNKVSVTCLIKSFHPPDIAVEWEITGQPEPENNYRTTPPQLDSDGTYFVYSKLSVDRSHWQRGNTYTCSVSHEALHSHYTQKSLTQSPGK
Response: 7.36
